pIC50: −log10 of the molar value.
What follows is literature data on pIC50 for Lysine-specific demethylase 5B (Homo sapiens).

Consider the following illustrative entries.
Oc1nc(OCC2CCc3ccccc32)nc2cnccc12 (stereo not drawn) ... 6.00 to 7.00
O=C(O)c1ccnc(CNCc2cccnc2)c1 ... > 6.60
CCN1CCC[C@@H](CNCc2cc(C(=O)O)ccn2)C1=O ... > 6.60

*Q* Can you look up the measured pIC50 of `COc1ccc([C@@H](C)N2CCC[C@@H](CNCc3cc(C(=O)O)ccn3)C2=O)cc1` for me?
*A* > 6.60

*Q* Can you look up the measured pIC50 of `N#CNC(=O)c1ccncc1Nc1nn(CCN2CCCC2)c2ccc(F)cc12` for me?
*A* > 7.00

*Q* Can you look up the measured pIC50 of `O=C(O)c1c(NCc2cc(Cl)c(F)cc2F)ccc2nccn12` for me?
*A* < 6.00

*Q* Can you look up the measured pIC50 of `O=C(O)c1ccncc1NCc1ccc(Cl)c(Cl)c1` for me?
*A* ≥ 7.00

*Q* Can you look up the measured pIC50 of `CCS(=O)(=O)N1CC[C@@H](n2cc(Oc3nc(O)c4ccncc4n3)cn2)C1` for me?
*A* ≥ 7.00

*Q* Can you look up the measured pIC50 of FC(F)(F)c1[nH]nnc1-c1ccncc1NCC1CCCc2ccccc21 (stereo not drawn) for me?
*A* < 5.00

*Q* Can you look up the measured pIC50 of `Cc1ccccc1CCn1cnc(-c2cc(C(=O)O)ccn2)c1` for me?
*A* ≥ 7.00

*Q* Can you look up the measured pIC50 of `O=C(O)c1ccnc(CN2CCC[C@H]2CO)c1` for me?
*A* > 6.60

*Q* Can you look up the measured pIC50 of `OCCOc1nc(O)c2ccncc2n1` for me?
*A* 6.00 to 7.00

*Q* Can you look up the measured pIC50 of `Oc1nc(OCc2cccc(F)c2F)nc2cnccc12` for me?
*A* 5.00 to 6.00

*Q* Can you look up the measured pIC50 of `CN(C)CCCn1cnc(-c2cc(C(=O)O)ccn2)c1` for me?
*A* ≥ 7.00

*Q* Can you look up the measured pIC50 of `Cc1cn2c(n1)CCN(Cc1cc(C(=O)O)ccn1)CC2` for me?
*A* > 6.60

*Q* Can you look up the measured pIC50 of `CCS(=O)(=O)N1CCC[C@@H](n2cc(Oc3nc(O)c4ccncc4n3)cn2)C1` for me?
*A* ≥ 7.00

*Q* Can you look up the measured pIC50 of `O=C(O)c1c(NCc2ccc(F)cc2F)ccc2nccn12` for me?
*A* 6.00 to 6.30

*Q* Can you look up the measured pIC50 of O=C(O)c1ccncc1Nc1nn(C2CCCOC2)c2ccc(F)cc12 (stereo not drawn) for me?
*A* > 7.00
